Experiment: Cytotoxicity against human CFU-GM cells
Assay type: cell-based
ENDPOINT_LABEL: IC50

Input line: So what's the measured IC50 for this one? CCC(=O)Nc1ccc(Cl)c(Cl)c1
Output line: > 500 µM
